Molecular target: human IL13 (human, UniProt P35225 35-146, biotinylated in the SPR assays (sites not given))
Sequence (P35225 other isoform, or with tags, fused parts or gaps limits assumed): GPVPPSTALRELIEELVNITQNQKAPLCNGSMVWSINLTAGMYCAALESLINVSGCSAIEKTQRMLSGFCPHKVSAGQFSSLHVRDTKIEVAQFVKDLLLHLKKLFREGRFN
Assay: cell-based or functional assay
Measured HEK STAT6 IC50 by item

BINDER	HEK STAT6 IC50 (nM)
7G11r7 (designed binder, optimized 7G11; expressed without HIS tag) GLDKKLLEAARAGQDDEVRILMANGADVNATDEFDSTPLHLAARHGHLEIVEVLLKYGADVNAADFIGDTPLHLAAYRGHLEIVEVLLKYGVDVNADDHGDTPLHLAASTGHLEIVEVLLKHGADVNAQDKFGKTAFDISIDNGNEDLAEILQKAA	0.085
IL13 binding protein 6G9 (designed binder) DLGKKLLEAARAGQDDEVRILMANGADVNARDSYGSTPLHLAAREGHLEIVEVLLKYGADVNAKDMIGDTPLHLAAYRGHLEIVEVLLKNGADVNASDITGETPLHLAAQIGHLEIVEVLLKYGADVNAQDKFGKTAFDISIDNGNEDLAEILQKLN	0.0174
9F8r3 (designed binder, optimized 9F8; expressed without HIS tag) GLDKKLLEAARAGQDDEVRILMANGADVNASDIFGSTPLHLAARHGHLEIVEVLLKYGADVNAFDFIGDTPLHLAAYRGHLEIVEVLLKYGVDVNADDHGDTPLHLAAQIGHLEIVEVLLKHGADVNAQDKFGKTAFDISIDNGNEDLAEILQKAA	0.202
